Biological target: HSA Fragment (Homo sapiens, UniProt P02768, form not given)
Construct: HSA Fragment
Sequence (P02768 whole entry, the tested form may be a part): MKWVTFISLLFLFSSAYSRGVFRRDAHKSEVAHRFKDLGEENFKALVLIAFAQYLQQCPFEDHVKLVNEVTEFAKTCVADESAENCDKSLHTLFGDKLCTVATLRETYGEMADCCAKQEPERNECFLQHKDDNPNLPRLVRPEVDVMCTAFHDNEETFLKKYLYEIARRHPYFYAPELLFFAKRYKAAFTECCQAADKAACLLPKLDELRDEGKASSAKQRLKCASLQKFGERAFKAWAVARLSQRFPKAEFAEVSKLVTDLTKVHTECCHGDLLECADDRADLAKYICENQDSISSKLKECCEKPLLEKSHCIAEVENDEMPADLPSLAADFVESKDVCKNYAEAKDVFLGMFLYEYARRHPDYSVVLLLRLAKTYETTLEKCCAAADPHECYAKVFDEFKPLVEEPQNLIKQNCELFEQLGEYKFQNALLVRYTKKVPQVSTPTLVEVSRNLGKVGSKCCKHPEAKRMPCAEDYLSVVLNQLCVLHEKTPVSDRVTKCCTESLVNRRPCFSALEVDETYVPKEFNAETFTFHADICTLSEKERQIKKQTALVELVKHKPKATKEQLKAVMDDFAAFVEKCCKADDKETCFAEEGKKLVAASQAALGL
Experiment: BIACORE binding to HSA Fragment
Conditions: human, HSA fragment, Protein: HSA Fragment; read-out: KD2
ENDPOINT_LABEL: pKd
# pKd: negative log10 of molar concentration; output just the value

Name the recorded pKd for CC(=O)CC(Cc1ccc(Cl)cc1)c1c(O)c2ccccc2oc1=O (stereo not drawn) [NCP 023a] .
4.30

Okay, and CC(=O)CC(Cc1ccccc1)c1c(O)c2ccccc2oc1=O (stereo not drawn) ?
3.66

Now the same for CCCCCCCCC(CC(C)=O)c1c(O)c2ccccc2oc1=O (stereo not drawn)
4.01

Origin of the recorded values: patent US7439077B2
